# MEASURED ON: cytochrome P450 2C19 (Homo sapiens (Human))
# Sequence (P33261 whole entry): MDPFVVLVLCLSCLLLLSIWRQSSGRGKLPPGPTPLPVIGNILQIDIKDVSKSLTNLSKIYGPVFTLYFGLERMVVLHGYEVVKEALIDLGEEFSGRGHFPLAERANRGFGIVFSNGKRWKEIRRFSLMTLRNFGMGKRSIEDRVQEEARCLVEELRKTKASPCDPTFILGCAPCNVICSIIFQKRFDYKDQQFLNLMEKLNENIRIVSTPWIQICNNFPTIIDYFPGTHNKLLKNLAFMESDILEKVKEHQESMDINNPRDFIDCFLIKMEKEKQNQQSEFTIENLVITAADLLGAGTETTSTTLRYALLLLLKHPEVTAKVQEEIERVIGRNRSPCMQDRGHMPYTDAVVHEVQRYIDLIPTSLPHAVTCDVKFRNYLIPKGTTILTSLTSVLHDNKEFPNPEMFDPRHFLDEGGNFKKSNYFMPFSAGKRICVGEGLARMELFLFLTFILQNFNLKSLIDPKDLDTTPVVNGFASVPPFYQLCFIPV
# EXPERIMENTAL DETAILS: Cytochrome P450 2C19 inhibition
# Format: in vitro ADME
# MEASUREMENT CONTEXT: human liver microsomes, (S)-Mephenytoin hydroxylation; read-out: CYP2C19 IC50
pIC50: −log10 of the molar value.
pIC50 values for the compounds below.

[
  {
    "COMPOUND": "CC(C)(O)CNC(=O)N1C(=O)N(c2cccc(C(F)(F)F)c2)C2=C(C(=O)CC2)[C@H]1c1ccc(C#N)cc1 [Example 41A]",
    "MEASURED ON": "cytochrome P450 2C19 (Homo sapiens (Human))",
    "pIC50": "< 4.30"
  },
  {
    "COMPOUND": "CCNC(=O)N1C(=O)N(c2cccc(C(F)(F)F)c2)C2=C(C(=O)CC2)[C@H]1c1ccc(C#N)cc1S(C)(=O)=O",
    "MEASURED ON": "cytochrome P450 2C19 (Homo sapiens (Human))",
    "pIC50": "< 4.30"
  },
  {
    "COMPOUND": "CNC(=O)N1C(=O)N(c2cccc(C(F)(F)F)c2)C2=C(C(=O)CC2)[C@H]1c1ccc(C#N)cc1S(C)(=O)=O",
    "MEASURED ON": "cytochrome P450 2C19 (Homo sapiens (Human))",
    "pIC50": "< 4.30"
  },
  {
    "COMPOUND": "CS(=O)(=O)c1cc(C#N)ccc1[C@H]1NC(=O)N(c2cccc(C(F)(F)F)c2)C2=C1C(=O)CC2 [Example 10A]",
    "MEASURED ON": "cytochrome P450 2C19 (Homo sapiens (Human))",
    "pIC50": 4.41
  },
  {
    "COMPOUND": "CS(=O)(=O)N1C(=O)N(c2cccc(C(F)(F)F)c2)C2=C(C(=O)CC2)[C@H]1c1ccc(C#N)cc1",
    "MEASURED ON": "cytochrome P450 2C19 (Homo sapiens (Human))",
    "pIC50": "< 4.30"
  }
]
